The reported measurements were obtained from ChEMBL document CHEMBL4219183.

What MIC80 was measured for each of the following?
Tested on: Candida tropicalis
Assay: Antifungal activity against Candida tropicalis after 24 hrs by two fold serial dilution method
Assay type: functional
Numbers only here, please. The scale is µg/mL.

Using known records, supply MIC80 for CCCCCCn1c(Cn2cnc3c(N4CCCC4)ncnc32)nc2ccccc21
128

Using known records, supply MIC80 for CCCCCCn1c(Cn2cnc3c(N4CCCCC4)ncnc32)nc2ccccc21
64

Using known records, supply MIC80 for Cc1cc2ncn(CCn3cnc4c(N5CCOCC5)ncnc43)c2cc1C
128

Using known records, supply MIC80 for c1nc2nc[nH]c(N3CCCC3)c-2n1
128

Using known records, supply MIC80 for CCCCCCCCCCCCn1c(Cn2cnc3c(N4CCOCC4)ncnc32)nc2ccccc21
64

Using known records, supply MIC80 for CCCCCCCCCCn1c(Cn2cnc3c(N4CCOCC4)ncnc32)nc2ccccc21
256

---

What MIC was measured for each of the following?
Tested on: Acinetobacter baumannii
Experiment: Antibacterial activity against Acinetobacter baumannii after 24 hrs by two fold serial dilution method
Format: functional
Numbers only here, please. The scale is µg/mL.

Using known records, supply MIC for Clc1ccccc1Cn1c(Cn2cnc3c(N4CCOCC4)ncnc32)nc2ccccc21
256

Using known records, supply MIC for CCCCCCn1c(Cn2cnc3c(N4CCCCC4)ncnc32)nc2ccccc21
64

Using known records, supply MIC for c1nc2nc[nH]c(N3CCCC3)c-2n1
256

Using known records, supply MIC for CCn1cc(C(=O)O)c(=O)c2cc(F)c(N3CCNCC3)cc21
32

Using known records, supply MIC for CCCCCCCCCCCCCCCCn1c(Cn2cnc3c(N4CCOCC4)ncnc32)nc2ccccc21
256

Using known records, supply MIC for Fc1ccc(Cn2c(Cn3cnc4c(N5CCOCC5)ncnc43)nc3ccccc32)cc1
256

Using known records, supply MIC for c1ccc(Cn2c(Cn3cnc4c(N5CCOCC5)ncnc43)nc3ccccc32)cc1
256

Using known records, supply MIC for CCCCCCn1c(Cn2cnc3c(N4CCOCC4)ncnc32)nc2ccccc21
64

Using known records, supply MIC for CCCCCCCCn1c(Cn2cnc3c(N4CCOCC4)ncnc32)nc2ccccc21
256

Using known records, supply MIC for CCCCCCCCCCn1c(Cn2cnc3c(N4CCOCC4)ncnc32)nc2ccccc21
256

---

What MIC80 was measured for each of the following?
Test system: Candida tropicalis
Assay: Antifungal activity against Candida tropicalis after 24 hrs by two fold serial dilution method
Format: functional
Numbers only here, please. The scale is µg/mL.

Using known records, supply MIC80 for Fc1ccccc1Cn1c(Cn2cnc3c(N4CCOCC4)ncnc32)nc2ccccc21
256

Using known records, supply MIC80 for Clc1cccc(Cn2c(Cn3cnc4c(N5CCOCC5)ncnc43)nc3ccccc32)c1
128

Using known records, supply MIC80 for CCn1c(Cn2cnc3c(N4CCOCC4)ncnc32)nc2ccccc21
256

Using known records, supply MIC80 for Cc1nc2ccccc2n1CCn1cnc2c(N3CCOCC3)ncnc21
256

Using known records, supply MIC80 for FC(F)(F)c1nc2ccccc2n1CCn1cnc2c(N3CCOCC3)ncnc21
256

Using known records, supply MIC80 for CCCCn1c(Cn2cnc3c(N4CCOCC4)ncnc32)nc2ccccc21
128

Using known records, supply MIC80 for CCCCCCCCn1c(Cn2cnc3c(N4CCOCC4)ncnc32)nc2ccccc21
256

Using known records, supply MIC80 for Fc1ccc(Cn2c(Cn3cnc4c(N5CCOCC5)ncnc43)nc3ccccc32)cc1
64

Using known records, supply MIC80 for CC(=O)c1nc2ccccc2n1CCn1cnc2c(N3CCOCC3)ncnc21
256

Using known records, supply MIC80 for Cc1nc2cc([N+](=O)[O-])ccc2n1CCn1cnc2c(N3CCOCC3)ncnc21
64

Using known records, supply MIC80 for C#CCn1c(Cn2cnc3c(N4CCOCC4)ncnc32)nc2ccccc21
128

Using known records, supply MIC80 for CCCCCCCCCCCCCCCCn1c(Cn2cnc3c(N4CCOCC4)ncnc32)nc2ccccc21
128

Using known records, supply MIC80 for CCCCCCn1c(Cn2cnc3c(N4CCOCC4)ncnc32)nc2ccccc21
64

Using known records, supply MIC80 for c1ccc(Cn2c(Cn3cnc4c(N5CCOCC5)ncnc43)nc3ccccc32)cc1
128

Using known records, supply MIC80 for Clc1ccccc1Cn1c(Cn2cnc3c(N4CCOCC4)ncnc32)nc2ccccc21
256

Using known records, supply MIC80 for Clc1ccc(Cn2c(Cn3cnc4c(N5CCOCC5)ncnc43)nc3ccccc32)cc1
64

Using known records, supply MIC80 for OC(Cn1cncn1)(Cn1cncn1)c1ccc(F)cc1F [FLUCONAZOLE]
256

Using known records, supply MIC80 for Fc1cccc(Cn2c(Cn3cnc4c(N5CCOCC5)ncnc43)nc3ccccc32)c1
128

Using known records, supply MIC80 for C=CCn1c(Cn2cnc3c(N4CCOCC4)ncnc32)nc2ccccc21
256

Using known records, supply MIC80 for c1nc(N2CCOCC2)c2nc[nH]c2n1
256

Using known records, supply MIC80 for c1ccc2c(c1)ncn2CCn1cnc2c(N3CCOCC3)ncnc21
256

Using known records, supply MIC80 for c1nc(N2CCCCC2)c2nc[nH]c2n1
256

---

Tested on: Acinetobacter baumannii
Assay: Antibacterial activity against Acinetobacter baumannii after 24 hrs by two fold serial dilution method
Type: functional
metricName: MIC (µg/mL)
Numbers only here, please. The scale is µg/mL.

Using known records, supply MIC for c1nc(N2CCCCC2)c2nc[nH]c2n1
128

Using known records, supply MIC for CCCCCCn1c(Cn2cnc3c(N4CCCC4)ncnc32)nc2ccccc21
64

Using known records, supply MIC for c1ccc2c(c1)ncn2CCn1cnc2c(N3CCOCC3)ncnc21
256

Using known records, supply MIC for C=CCn1c(Cn2cnc3c(N4CCOCC4)ncnc32)nc2ccccc21
128

Using known records, supply MIC for Clc1ccc(Cn2c(Cn3cnc4c(N5CCOCC5)ncnc43)nc3ccccc32)cc1
512

Using known records, supply MIC for CCCCn1c(Cn2cnc3c(N4CCOCC4)ncnc32)nc2ccccc21
256

Using known records, supply MIC for CCCCCCCCCCCCn1c(Cn2cnc3c(N4CCOCC4)ncnc32)nc2ccccc21
512

---

Test system: Escherichia coli
Experiment: Antibacterial activity against Escherichia coli after 24 hrs by two fold serial dilution method
Format: functional
metricName: MIC (µg/mL)
Numbers only here, please. The scale is µg/mL.

Using known records, supply MIC for Cc1nc2ccccc2n1CCn1cnc2c(N3CCOCC3)ncnc21
512

Using known records, supply MIC for CCn1c(Cn2cnc3c(N4CCOCC4)ncnc32)nc2ccccc21
128

Using known records, supply MIC for CCn1cc(C(=O)O)c(=O)c2cc(F)c(N3CCNCC3)cc21
512

Using known records, supply MIC for Cc1nc2cc([N+](=O)[O-])ccc2n1CCn1cnc2c(N3CCOCC3)ncnc21
128

Using known records, supply MIC for C#CCn1c(Cn2cnc3c(N4CCOCC4)ncnc32)nc2ccccc21
128

Using known records, supply MIC for CCCCCCCCCCCCn1c(Cn2cnc3c(N4CCOCC4)ncnc32)nc2ccccc21
32

Using known records, supply MIC for c1nc(N2CCCCC2)c2nc[nH]c2n1
256

Using known records, supply MIC for CCCCn1c(Cn2cnc3c(N4CCOCC4)ncnc32)nc2ccccc21
64

Using known records, supply MIC for CCCCCCn1c(Cn2cnc3c(N4CCOCC4)ncnc32)nc2ccccc21
128

Using known records, supply MIC for CCCCCCCCCCCCCCCCn1c(Cn2cnc3c(N4CCOCC4)ncnc32)nc2ccccc21
512

Using known records, supply MIC for Clc1cccc(Cn2c(Cn3cnc4c(N5CCOCC5)ncnc43)nc3ccccc32)c1
256

Using known records, supply MIC for Clc1ccccc1Cn1c(Cn2cnc3c(N4CCOCC4)ncnc32)nc2ccccc21
128

Using known records, supply MIC for CCCCCCn1c(Cn2cnc3c(N4CCCC4)ncnc32)nc2ccccc21
256

Using known records, supply MIC for CC(=O)c1nc2ccccc2n1CCn1cnc2c(N3CCOCC3)ncnc21
128

Using known records, supply MIC for Clc1ccc(Cn2c(Cn3cnc4c(N5CCOCC5)ncnc43)nc3ccccc32)cc1
256

Using known records, supply MIC for C=CCn1c(Cn2cnc3c(N4CCOCC4)ncnc32)nc2ccccc21
256

Using known records, supply MIC for FC(F)(F)c1nc2ccccc2n1CCn1cnc2c(N3CCOCC3)ncnc21
32

Using known records, supply MIC for Cc1cc2ncn(CCn3cnc4c(N5CCOCC5)ncnc43)c2cc1C
256

Using known records, supply MIC for CCCCCCCCCCn1c(Cn2cnc3c(N4CCOCC4)ncnc32)nc2ccccc21
32

Using known records, supply MIC for c1ccc2c(c1)ncn2CCn1cnc2c(N3CCOCC3)ncnc21
256

Using known records, supply MIC for Fc1ccc(Cn2c(Cn3cnc4c(N5CCOCC5)ncnc43)nc3ccccc32)cc1
128

Using known records, supply MIC for c1nc2nc[nH]c(N3CCCC3)c-2n1
256

Using known records, supply MIC for c1nc(N2CCOCC2)c2nc[nH]c2n1
256

Using known records, supply MIC for CCCCCCn1c(Cn2cnc3c(N4CCCCC4)ncnc32)nc2ccccc21
256

Using known records, supply MIC for Fc1ccccc1Cn1c(Cn2cnc3c(N4CCOCC4)ncnc32)nc2ccccc21
64

Using known records, supply MIC for c1ccc(Cn2c(Cn3cnc4c(N5CCOCC5)ncnc43)nc3ccccc32)cc1
256

Using known records, supply MIC for CCCCCCCCn1c(Cn2cnc3c(N4CCOCC4)ncnc32)nc2ccccc21
256

Using known records, supply MIC for Fc1cccc(Cn2c(Cn3cnc4c(N5CCOCC5)ncnc43)nc3ccccc32)c1
256
